Target: Integrin alpha4beta1 (VLA-4, CD49d/CD29), recombinant heterodimer (Homo sapiens, UniProt P13612;P05556 P13612:34-977,P05556:21-728)
Sequence (P13612 34-977, chain 1 of 2): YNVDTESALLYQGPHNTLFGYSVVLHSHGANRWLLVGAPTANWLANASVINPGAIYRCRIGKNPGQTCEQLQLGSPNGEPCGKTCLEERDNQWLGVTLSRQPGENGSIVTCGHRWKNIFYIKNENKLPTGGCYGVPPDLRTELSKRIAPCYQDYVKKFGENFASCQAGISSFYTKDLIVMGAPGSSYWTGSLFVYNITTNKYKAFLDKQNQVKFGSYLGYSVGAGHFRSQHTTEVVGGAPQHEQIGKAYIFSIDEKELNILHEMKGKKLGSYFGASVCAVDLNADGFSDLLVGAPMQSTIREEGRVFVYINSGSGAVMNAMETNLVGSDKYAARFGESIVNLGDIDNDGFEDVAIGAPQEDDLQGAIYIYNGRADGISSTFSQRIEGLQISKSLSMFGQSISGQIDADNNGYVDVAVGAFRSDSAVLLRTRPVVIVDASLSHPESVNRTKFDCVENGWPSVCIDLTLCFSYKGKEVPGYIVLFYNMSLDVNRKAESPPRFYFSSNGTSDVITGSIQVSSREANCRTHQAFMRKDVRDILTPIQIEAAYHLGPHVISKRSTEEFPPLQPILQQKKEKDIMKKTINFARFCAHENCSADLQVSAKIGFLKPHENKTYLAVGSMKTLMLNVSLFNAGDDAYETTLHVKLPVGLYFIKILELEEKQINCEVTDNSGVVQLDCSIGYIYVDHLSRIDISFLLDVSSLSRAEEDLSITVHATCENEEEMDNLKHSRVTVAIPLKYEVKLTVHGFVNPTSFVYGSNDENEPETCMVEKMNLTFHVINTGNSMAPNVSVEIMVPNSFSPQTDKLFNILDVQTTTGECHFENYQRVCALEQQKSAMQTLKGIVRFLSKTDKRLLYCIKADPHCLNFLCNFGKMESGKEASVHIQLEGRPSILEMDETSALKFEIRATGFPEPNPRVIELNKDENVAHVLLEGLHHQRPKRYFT
Sequence (P05556 21-728, chain 2 of 2): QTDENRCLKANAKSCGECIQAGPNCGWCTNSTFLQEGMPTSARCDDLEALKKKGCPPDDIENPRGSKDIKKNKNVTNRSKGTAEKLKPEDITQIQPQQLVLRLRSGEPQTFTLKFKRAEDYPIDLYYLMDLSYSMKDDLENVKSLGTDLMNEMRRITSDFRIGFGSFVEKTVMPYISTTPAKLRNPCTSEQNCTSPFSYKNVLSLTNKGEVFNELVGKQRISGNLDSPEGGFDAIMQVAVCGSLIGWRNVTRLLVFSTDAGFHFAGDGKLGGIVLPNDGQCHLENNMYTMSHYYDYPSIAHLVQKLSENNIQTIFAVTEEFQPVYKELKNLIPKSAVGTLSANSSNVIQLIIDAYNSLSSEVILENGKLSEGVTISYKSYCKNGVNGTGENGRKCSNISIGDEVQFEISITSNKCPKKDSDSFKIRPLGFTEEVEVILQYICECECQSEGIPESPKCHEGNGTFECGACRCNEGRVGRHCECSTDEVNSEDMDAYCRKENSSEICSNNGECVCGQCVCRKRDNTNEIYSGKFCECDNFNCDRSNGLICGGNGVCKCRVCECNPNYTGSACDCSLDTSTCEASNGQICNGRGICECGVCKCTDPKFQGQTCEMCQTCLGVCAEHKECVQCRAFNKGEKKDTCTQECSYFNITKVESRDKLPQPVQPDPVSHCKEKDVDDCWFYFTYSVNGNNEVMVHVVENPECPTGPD
Experiment: BLI; 25 C, immobilised biotin-aptamer
Details: tags: His-tag; ACROBiosystems IT1-H52W1; label: biotin, FAM or Cy5
Kindly state Kd for each of the entries shown.
One number for each entry, in nM.

>>> print(df.to_string())
                                     binder  assay_value
0  HR7A1.Tr1 (ssDNA) DNA: CAGCAAACCTGACCTCCTTACTAGATGCAACCCGACTACTAACGTCGTAAGAGAG         7.74

Continue with the binder presented below.
Note to self: Kd recorded for CTCCTTACTAGATGCAACCCGACTACTAACGTCGTAAGAGAG (ssDNA) [HR7A1.Tr2] was 9.89
